Let's look at some compounds and their measured EC50.
Molecular target: Peroxisome proliferator-activated receptor delta (Homo sapiens)
Sequence (Q03181 whole entry): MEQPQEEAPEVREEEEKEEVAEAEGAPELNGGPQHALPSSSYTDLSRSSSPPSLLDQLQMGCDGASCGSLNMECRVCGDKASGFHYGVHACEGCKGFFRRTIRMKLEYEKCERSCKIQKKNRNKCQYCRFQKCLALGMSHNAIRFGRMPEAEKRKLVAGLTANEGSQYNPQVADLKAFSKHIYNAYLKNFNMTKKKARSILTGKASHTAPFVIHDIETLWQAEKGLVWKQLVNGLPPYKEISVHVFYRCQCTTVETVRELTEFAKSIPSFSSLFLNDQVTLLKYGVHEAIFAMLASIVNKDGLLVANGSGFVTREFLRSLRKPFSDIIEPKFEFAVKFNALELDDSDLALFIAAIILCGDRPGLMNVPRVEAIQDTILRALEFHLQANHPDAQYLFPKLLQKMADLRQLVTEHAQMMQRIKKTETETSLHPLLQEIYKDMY
Assay: Agonist activity at human PPARdelta receptor by cell based transactivation assay

Worked examples, 2 compounds total:
CCCc1c(OCCCn2ccc3cc(OC(C)(C)C(=O)O)ccc32)ccc2cc(C(=O)c3ccccc3)ccc12 :: > 10 µM
CCCc1c(OCCCn2ccc3cc(OC(C)(C)C(=O)O)ccc32)ccc2cc(C(=O)c3ccc(OC)cc3)ccc12 :: > 10 µM

EC50 for `CCCc1cc(C(=O)c2ccc3ccccc3c2)ccc1OCCCn1ccc2c(OC(C)(C)C(=O)O)cccc21` is > 10 µM

====

Target: Peroxisome proliferator-activated receptor alpha (Homo sapiens)
Sequence (Q07869 whole entry): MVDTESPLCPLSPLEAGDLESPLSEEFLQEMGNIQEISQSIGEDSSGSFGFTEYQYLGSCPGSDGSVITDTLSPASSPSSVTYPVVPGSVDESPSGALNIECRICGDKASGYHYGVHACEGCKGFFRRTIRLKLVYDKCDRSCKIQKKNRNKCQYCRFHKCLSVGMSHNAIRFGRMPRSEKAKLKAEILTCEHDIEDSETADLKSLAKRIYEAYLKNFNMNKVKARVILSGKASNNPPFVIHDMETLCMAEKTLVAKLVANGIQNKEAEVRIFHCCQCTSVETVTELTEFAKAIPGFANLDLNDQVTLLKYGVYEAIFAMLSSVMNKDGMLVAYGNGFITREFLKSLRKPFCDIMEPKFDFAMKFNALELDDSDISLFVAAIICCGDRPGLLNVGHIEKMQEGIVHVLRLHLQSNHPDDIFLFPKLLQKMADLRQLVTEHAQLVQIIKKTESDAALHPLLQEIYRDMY
Test: Agonist activity at human PPARalpha receptor by cell based transactivation assay
MEASURED_PARAMETER: EC50 (nM)

See these solved cases before continuing.
CCCc1c(OCCCn2ccc3cc(OC(C)(C)C(=O)O)ccc32)ccc2c(C(=O)c3ccccc3)cccc12 :: 200
CCCc1c(OCCCN2CCCc3c(OC(C)(C)C(=O)O)cccc32)ccc2cc(C(=O)c3ccccc3)ccc12 :: 120

a. CCCc1c(OCCCN2CCCc3cc(OC(C)(C)C(=O)O)ccc32)ccc2cc(C(=O)c3ccccc3)ccc12
b. CCCc1cc(C(=O)c2ccc3ccccc3c2)ccc1OCCCn1ccc2c(OC(C)(C)C(=O)O)cccc21
a or b : whose EC50 is greater? Please identify the chosen entry by its label.
a
(a: 240 nM, b: 30 nM)
